subject of test: human CD3 (human, UniProt P07766 23-207; P04234 22-171; P09693 23-182)
Sequence (P07766 23-207, chain 1 of 3): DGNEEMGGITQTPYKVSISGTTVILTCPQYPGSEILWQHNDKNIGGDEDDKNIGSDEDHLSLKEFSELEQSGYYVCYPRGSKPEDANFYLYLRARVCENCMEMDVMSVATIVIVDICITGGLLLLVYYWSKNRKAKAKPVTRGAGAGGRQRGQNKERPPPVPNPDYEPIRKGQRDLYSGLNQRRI
Sequence (P04234 22-171, chain 2 of 3): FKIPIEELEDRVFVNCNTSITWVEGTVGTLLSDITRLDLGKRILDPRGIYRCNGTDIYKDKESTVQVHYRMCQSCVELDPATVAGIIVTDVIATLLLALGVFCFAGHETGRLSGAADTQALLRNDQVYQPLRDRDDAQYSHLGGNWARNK
Sequence (P09693 23-182, chain 3 of 3): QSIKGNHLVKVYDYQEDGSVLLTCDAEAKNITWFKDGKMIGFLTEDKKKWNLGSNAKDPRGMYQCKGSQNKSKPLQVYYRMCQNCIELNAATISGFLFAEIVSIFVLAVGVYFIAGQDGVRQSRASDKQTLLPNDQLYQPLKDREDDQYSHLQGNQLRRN
method description: cell-based or functional assay
measured metric: EC50_Fold change (Jurkat-NFAT-luciferase activation, normalized to ch40-C12-C10-E9) (fold)
// note: answer is a bare numeric in fold

So what's the measured EC50_Fold change (Jurkat-NFAT-luciferase activation, normalized to ch40-C12-C10-E9) for this one? hu40E9-L3H2 (antibody, V domains shown, humanized 40-C12-C10-E9) VH: EVQLVQSGAEVKKPGSSVKVSCKASGYTFSSYVIHWVRQAPGQGLEWMGYINPYNDVIKYNEKFKGRVTITADKSTSTAYMELSSLRSEDTAVYYCARDSYYSYDGFAYWGQGTLVTVSS VL: EIVLTQSPDFQSVTPKEKVTITCSASSSVSYMHWYQQKPDQSPKRWIYDTSKLASGVPSRFSGSGSGTDYTLTINSLEAEDAATYYCQQWSSNPPTFGGGTKVEIK
0.57

So what's the measured EC50_Fold change (Jurkat-NFAT-luciferase activation, normalized to ch40-C12-C10-E9) for this one? hu40E9-L2H1 (antibody, V domains shown, humanized 40-C12-C10-E9) VH: EVQLVQSGAEVKKPGSSVKVSCKASGGTFSSYVIHWVRQAPGQGLEWMGYINPYNDVIKYNEKFKGRVTITADKSTSTAYMELSSLRSEDTAVYYCARDSYYSYDGFAYWGQGTLVTVSS VL: EIVLTQSPDFQSVTPKEKVTITCSASSSVSYMHWYQQKPDQSPKRLIYDTSKLASGVPSRFSGSGSGTDFTLTINSLEAEDAATYYCQQWSSNPPTFGGGTKVEIK
5.73

So what's the measured EC50_Fold change (Jurkat-NFAT-luciferase activation, normalized to ch40-C12-C10-E9) for this one? hu40E9-L3H4 (antibody, V domains shown, humanized 40-C12-C10-E9) VH: EVQLVQSGAEVKKPGSSVKVSCKASGYTFSSYVIHWVRQAPGQGLEWIGYINPYNDVIKYNEKFKGRATLTSDKSTSTAYMELSSLRSEDTAVYYCARDSYYSYDGFAYWGQGTLVTVSS VL: EIVLTQSPDFQSVTPKEKVTITCSASSSVSYMHWYQQKPDQSPKRWIYDTSKLASGVPSRFSGSGSGTDYTLTINSLEAEDAATYYCQQWSSNPPTFGGGTKVEIK
0.61

So what's the measured EC50_Fold change (Jurkat-NFAT-luciferase activation, normalized to ch40-C12-C10-E9) for this one? hu40E9-L2H3-D105R.H (antibody, V domains shown) VH: EVQLVQSGAEVKKPGSSVKVSCKASGYTFSSYVIHWVRQAPGQGLEWMGYINPYNDVIKYNEKFKGRVTLTSDKSTSTAYMELSSLRSEDTAVYYCARDSYYSYRGFAYWGQGTLVTVSS VL: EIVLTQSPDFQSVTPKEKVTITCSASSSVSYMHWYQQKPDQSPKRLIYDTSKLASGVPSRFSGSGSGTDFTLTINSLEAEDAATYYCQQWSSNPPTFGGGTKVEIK
1.95

So what's the measured EC50_Fold change (Jurkat-NFAT-luciferase activation, normalized to ch40-C12-C10-E9) for this one? hu40E9-L2H3 (antibody, V domains shown, humanized 40-C12-C10-E9) VH: EVQLVQSGAEVKKPGSSVKVSCKASGYTFSSYVIHWVRQAPGQGLEWMGYINPYNDVIKYNEKFKGRVTLTSDKSTSTAYMELSSLRSEDTAVYYCARDSYYSYDGFAYWGQGTLVTVSS VL: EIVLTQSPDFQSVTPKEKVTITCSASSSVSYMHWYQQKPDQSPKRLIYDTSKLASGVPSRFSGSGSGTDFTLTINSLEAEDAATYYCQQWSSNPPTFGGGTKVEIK
2.43
